For each entry below, report its Imax value.
- Test system: CAKI-2
- Test: Cytotoxicity against human CAKI-2 cells assessed as maximum inhibition of cell viability upto 198 uM incubated for 72 hrs by MTS assay relative to control
- Type: functional
- Stated conditions: up to 198 µM
Just the number in %, nothing appended.

Imax reported for this compound Nc1ncnc2c1ncn2[C@@H]1O[C@H](CO)C[C@H]1O [CORDYCEPIN] : 25

Imax reported for this compound C[C@H](NP(=O)(OC[C@@H]1C[C@@H](O)[C@H](n2cnc3c(N)ncnc32)O1)Oc1ccccc1)C(=O)OCc1ccccc1 (some centres undefined) [FOSDESDENOSINE SIPALABENAMIDE] : 78

Imax reported for this compound CC(=O)O[C@H]1C(=O)[C@@]2(C)[C@H]([C@H](OC(=O)c3ccccc3)[C@]3(O)C[C@H](OC(=O)[C@H](O)[C@@H](NC(=O)c4ccccc4)c4ccccc4)C(C)=C1C3(C)C)[C@]1(OC(C)=O)CO[C@@H]1C[C@@H]2O [PACLITAXEL] : 78

Imax reported for this compound C[C@H](NP(=S)(OC[C@@H]1C[C@@H](O)[C@H](n2cnc3c(N)ncnc32)O1)Oc1ccccc1)C(=O)OCc1ccccc1 (some centres undefined) : 78
